Quick list: EC50 per entry.
Molecular target: PPARδ (Homo sapiens, UniProt Q03181)
Construct: a Gal4-Luciferase reporter is co-transfected
Sequence (Q03181 171-441 limits assumed): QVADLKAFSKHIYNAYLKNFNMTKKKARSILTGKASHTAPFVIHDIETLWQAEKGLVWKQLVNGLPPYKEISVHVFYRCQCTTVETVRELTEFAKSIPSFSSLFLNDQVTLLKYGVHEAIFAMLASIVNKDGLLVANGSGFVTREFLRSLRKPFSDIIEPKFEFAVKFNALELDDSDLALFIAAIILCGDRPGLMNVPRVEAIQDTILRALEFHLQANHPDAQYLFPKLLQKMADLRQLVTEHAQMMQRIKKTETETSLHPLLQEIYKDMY
Experiment: Transfection Assay for PPARδ Receptors (PPAR-Gal4 / Gal4-Luciferase reporter in HEK293 cells)
Assay type: cell-based
Settings: values in square brackets

{"columns": ["compound", "EC50"],
 "data": [
  ["CCN(C(=O)Oc1ccc(C)cc1)C1CCc2cc(SC(C)(C)C(=O)O)c(Cl)cc2C1 (stereo not shown)", "0.613 µM"],
  ["CCN(C(=O)Nc1ccc(OC(F)(F)F)cc1)C1CCc2cc(SC(C)(C)C(=O)O)c(OC)cc2C1 (stereo not shown)", "> 3 µM"],
  ["CCN(C(=O)Nc1ccc(OC(F)(F)F)cc1)C1CCc2cc(SC(C)(C)C(=O)O)c(-c3ccccc3)cc2C1 (stereo not shown)", "1.72 µM"],
  ["CCN(C(=O)Oc1ccc(Cl)cc1)C1CCc2cc(SC(C)(C)C(=O)O)c(Cl)cc2C1 (stereo not shown)", "0.655 µM"]
]}

----------
system: db/db mice; assay: Oral dosing in female db/db mice; type: in vivo; settings: Mus musculus, 120 h, 1.0 mpk, 5 day oral dosing, % change compared to vehicle, read-out: Δ BW

{"columns": ["compound", "testTarget", "outputUnit", "change in vivo at 1 mg/kg"],
 "data": [
  ["CCN(C(=O)Nc1ccc(OC(F)(F)F)cc1)C1Cc2ccc(SC(C)(C)C(=O)O)cc2C1 (stereo not shown)", "db/db mice", "%", -59],
  ["CCCCCN(C(=O)Nc1ccc(OC(F)(F)F)cc1)C1Cc2ccc(SC(C)(C)C(=O)O)cc2C1 (stereo not shown)", "db/db mice", "%", -2],
  ["CCN(C(=O)Nc1ccc(C(C)C)cc1)C1Cc2ccc(SC(C)(C)C(=O)O)cc2C1 (stereo not shown)", "db/db mice", "%", -54],
  ["CCN(C(=O)Nc1ccc(N(C)C)cc1)C1Cc2ccc(SC(C)(C)C(=O)O)cc2C1 (stereo not shown)", "db/db mice", "%", -27],
  ["CCCCCN(C(=O)Nc1ccc(N(C)C)cc1)C1Cc2ccc(SC(C)(C)C(=O)O)cc2C1 (stereo not shown)", "db/db mice", "%", 0.05],
  ["CCN(C(=O)Nc1ccc(SC(F)(F)F)cc1)C1Cc2ccc(SC(C)(C)C(=O)O)cc2C1 (stereo not shown)", "db/db mice", "%", -11],
  ["CCCCCN(C(=O)Nc1ccc(SC(F)(F)F)cc1)C1Cc2ccc(SC(C)(C)C(=O)O)cc2C1 (stereo not shown)", "db/db mice", "%", 56]
]}

----------
target: PPARγ (Homo sapiens, UniProt P37231); construct: Following the challenge of the preadipocytes, cells may be lysed with lysis buffer; endogenous in cells; host or cells: preadipocytes; assay: aP2 Assay for PPAR gamma Agonists (bDNA aP2 mRNA in preadipocytes); type: cell-based; conditions: fold induction; PPARγ standard: FI = 70.3
Sequence (P37231 whole entry): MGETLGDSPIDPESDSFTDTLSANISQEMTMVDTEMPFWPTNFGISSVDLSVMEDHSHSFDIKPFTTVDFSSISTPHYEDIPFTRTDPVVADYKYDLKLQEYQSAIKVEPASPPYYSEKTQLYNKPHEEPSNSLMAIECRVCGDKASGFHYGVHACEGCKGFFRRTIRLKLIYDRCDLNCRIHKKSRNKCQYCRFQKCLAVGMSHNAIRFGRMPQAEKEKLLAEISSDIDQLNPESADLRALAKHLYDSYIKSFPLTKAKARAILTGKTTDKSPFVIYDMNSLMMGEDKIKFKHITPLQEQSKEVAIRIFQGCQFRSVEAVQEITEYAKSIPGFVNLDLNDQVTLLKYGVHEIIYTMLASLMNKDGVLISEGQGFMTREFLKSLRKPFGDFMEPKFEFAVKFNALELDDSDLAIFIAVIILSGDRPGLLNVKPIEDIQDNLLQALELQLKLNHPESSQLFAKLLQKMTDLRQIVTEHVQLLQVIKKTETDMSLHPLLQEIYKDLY

{"columns": ["molecule", "testTarget", "PPARγ FI"],
 "data": [
  ["CCCCN(C(=O)Nc1ccc(SC(F)(F)F)cc1)C1Cc2ccc(SC(C)(C)C(=O)O)cc2C1 (stereo not shown)", "PPARγ (Homo sapiens, UniProt P37231)", 0.43],
  ["CCCCCCN(C(=O)Nc1ccc(C(C)C)cc1)C1Cc2ccc(SC(C)(C)C(=O)O)cc2C1 (stereo not shown)", "PPARγ (Homo sapiens, UniProt P37231)", 1.2],
  ["CC(C)CCN(C(=O)Nc1ccc(C(C)C)cc1)C1Cc2ccc(SC(C)(C)C(=O)O)cc2C1 (stereo not shown)", "PPARγ (Homo sapiens, UniProt P37231)", 0.05],
  ["CCN(C(=O)Nc1ccc(OC(F)(F)F)cc1)C1Cc2ccc(SC(C)(C)C(=O)O)cc2C1 (stereo not shown)", "PPARγ (Homo sapiens, UniProt P37231)", 0.24]
]}
